- System: UO-31
- TEST: NCI tumour cell line growth inhibition, 48 h
Calls of active or inactive are those of the source. No stated cut-off is given here; in the data, active = GI50 up to about 1.1 µM and inactive = higher.
PROPERTY NAME: GI50

Some molecules with recorded GI50:
- MOLECULE: "O=P1(N(CCCl)CCCl)Oc2c(Cl)cc(Cl)c(Cl)c2Cc2c(Cl)c(Cl)cc(Cl)c2O1"
  ASSAYED TARGET: "UO-31"
  ASSAY RESULT: "48.4 µM (inactive)"
- MOLECULE: "Cc1cc2cc3c(O)nc(O)nc3nc2cc1C"
  ASSAYED TARGET: "UO-31"
  ASSAY RESULT: "> 100 µM (inactive)"
- MOLECULE: "COc1ccc(/C=N/NC(=O)O)cc1"
  ASSAYED TARGET: "UO-31"
  ASSAY RESULT: "> 100 µM (inactive)"

// for each molecule below, give its GI50
1. CC(N)Cc1ccc(Cl)cc1 (stereo not given)
2. C#C[C@]1(O)CCC2C3CCc4cc(Oc5nc(F)nc(-n6c(C)nc7cc8ccccc8cc76)n5)ccc4C3CCC21C (stereo not given in full)

["59.4 µM (inactive)", "75.2 µM (inactive)"]
